This collection of values is drawn from PubChem BioAssay AID612.

target: 5-hydroxytryptamine receptor 1A (Homo sapiens) (UniProt P08908); experiment: human 5-HT1a receptor antagonists, primary screen, cell-based, CHO, Ga15 NFAT-bla reporter (AID 612); details: CHO 5-HT1a Ga15 NFAT-bla reporter, antagonist mode; at 10 µM; active compounds read high;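 further: receptor stimulated by 5-CT agonist at 100 nM near EC80; beta-lactamase reporter measured by ratiometric fluorescence of a cleavable substrate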
Sequence (P08908 whole entry, looked up): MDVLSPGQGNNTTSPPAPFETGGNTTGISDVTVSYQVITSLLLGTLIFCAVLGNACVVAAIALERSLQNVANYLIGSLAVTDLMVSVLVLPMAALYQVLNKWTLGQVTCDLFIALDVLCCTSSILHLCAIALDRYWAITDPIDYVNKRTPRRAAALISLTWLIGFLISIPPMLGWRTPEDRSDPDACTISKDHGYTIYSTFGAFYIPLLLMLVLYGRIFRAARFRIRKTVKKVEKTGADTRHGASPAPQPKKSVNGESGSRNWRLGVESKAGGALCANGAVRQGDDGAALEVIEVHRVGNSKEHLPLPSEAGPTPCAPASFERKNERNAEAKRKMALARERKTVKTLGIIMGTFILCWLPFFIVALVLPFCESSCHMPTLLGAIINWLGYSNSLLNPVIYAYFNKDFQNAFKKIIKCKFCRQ
In all, about 62,000 compounds went through this assay and about 420 (0.68%) were called active. The full list was thinned out, with actives kept by preference.
I'd be grateful if you could share measured inhibition for these entries.
Give bare numbers, in %.

Record excerpt, results attached:
Data request: Query (compound): Cc1ccc(N2C(=O)c3ccccc3C2(O)c2ncc[nH]2)cc1 (stereo unspecified) ; field requested: inhibition
Data returned: 3.5

Data request: Query (compound): COc1ccc(C)c(Cn2c(-c3nonc3N)nc3ccccc32)c1 ; field requested: inhibition
Data returned: 38.7

Data request: Query (compound): O=C(Nc1cc(C(F)(F)F)ccc1Cl)c1cc(C2CC2)on1 ; field requested: inhibition
Data returned: 2.5

Data request: Query (compound): Nc1nonc1-c1nc2ccccc2n1CCC(=O)O ; field requested: inhibition
Data returned: -21.2

Data request: Query (compound): Cc1cccc(NC(=O)c2ccccc2NC(=O)C(C)(C)C)n1 ; field requested: inhibition
Data returned: 1.6

Data request: Query (compound): COc1cc(C2C(C(=O)c3ccc(C)o3)=C(O)C(=O)N2CCc2ccccc2)ccc1O (stereo unspecified) ; field requested: inhibition
Data returned: -1.1

For each of the compounds below, state inhibition.
1. CC1(C)C(=O)C2(CCCCC2)C(=O)OC1c1cccs1 (stereo unspecified)
2. COc1ccc(CCN2C(=O)c3[nH]nc(-c4ccccc4O)c3C2c2ccc(C)cc2)cc1OC (stereo unspecified)
3. COc1ccc(CCN(C)CCN2C(=O)c3ccccc3C2=O)cc1OC
4. Cc1ccc(-n2nc3c(c2NC(=O)c2ccc4c(c2)OCO4)CSC3)c(C)c1
5. CN(C)/C=C1\C=C(c2ccccc2)OC1=O

Data returned:
-2.8
54.6
-14.2
9
-8.2

----------
I'd be grateful if you could share measured inhibition for these entries.
target: 5-hydroxytryptamine receptor 1A (Homo sapiens) (UniProt P08908); assay: human 5-HT1a receptor antagonists, primary screen, cell-based, CHO, Ga15 NFAT-bla reporter (AID 612); settings: CHO 5-HT1a Ga15 NFAT-bla reporter, antagonist mode; at 10 µM; active compounds read high;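 further: receptor stimulated by 5-CT agonist at 100 nM near EC80; beta-lactamase reporter measured by ratiometric fluorescence of a cleavable substrate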
The campaign covered roughly 62,000 compounds. About 420 (0.68%) were called active. The full list was thinned out, with actives kept by preference.
Answers are plain numbers, in %.

For each of the molecules below, state inhibition.
1. CCC1C(C#N)=C(SC)NC2=C1C(=O)CC(C)(C)C2 (stereo not given)
2. CCOc1ccccc1C1NC(=O)NC(C)=C1C(=O)OCc1ccco1 (stereo not given)
3. CCCC(=O)Nc1c(O)c2ccccc2[nH]c1=O
4. CCCCNC(=O)c1ccccc1NC(=O)c1ccccc1N(C)S(C)(=O)=O
5. CN1CCN(S(=O)(=O)c2ccc(NC(=O)C3CCCO3)cc2)CC1 (stereo not given)

Data returned:
1. 0.2
2. -4.6
3. 0.3
4. -13.1
5. -0.1

----------
I'd be grateful if you could share measured inhibition for these entries.
target: 5-hydroxytryptamine receptor 1A (Homo sapiens) (UniProt P08908); experiment: human 5-HT1a receptor antagonists, primary screen, cell-based, CHO, Ga15 NFAT-bla reporter (AID 612); conditions: CHO 5-HT1a Ga15 NFAT-bla reporter, antagonist mode; at 10 µM; active compounds read high;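 further: receptor stimulated by 5-CT agonist at 100 nM near EC80; beta-lactamase reporter measured by ratiometric fluorescence of a cleavable substrate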
Screen size: about 62,000 compounds; about 420 (0.68%) were called active. The full list was thinned out, with actives kept by preference.
One number for each entry, in %.

For each of the compounds below, state inhibition.
1. COc1ccc(O)c(C=Nc2cc(C)on2)c1
2. CCOC(=O)C1(Cc2ccc(O)cc2)NC(c2ccccc2F)C2C(=O)N(C)C(=O)C21 (stereo unspecified)
3. COCCNC(=O)Cn1cc2c(n1)CCCCC2
4. COc1cc(OC)c(NC(=O)c2ccc(Br)o2)cc1Cl
5. Cc1ccccc1Nc1nc(N)nc(CN2CCN(c3ccccn3)CC2)n1
6. O=C(CCCn1c(SCC(=O)c2ccc(F)cc2)nc2ccccc2c1=O)NCc1ccco1
7. CCCOc1ccccc1C1CC(=O)Nc2cc3c(cc21)OCO3 (stereo unspecified)

Data returned:
1: 4.6; 2: 6.2; 3: -1.6; 4: 5.1; 5: 2; 6: 7.8; 7: 54.2
